attribute.measured: logP
# answer = number (no unit)

Study these solved cases before continuing.
INSERT INTO assay_data (compound, attribute_measured, observed) VALUES
  ('O=[N+]([O-])c1ccc(O)c([N+](=O)[O-])c1', 'logP', 1.67),
  ('N#Cc1ccc(CC(=O)Nc2ccccc2)cc1', 'logP', 2.82),
  ('CC(=O)Nc1cccc(C(C)=O)c1', 'logP', 1.06),
  ('NC(=O)Oc1ccccc1', 'logP', 1.08);

Recorded logP of CCOC(C)=O , please.
0.73

Which value of logP has been reported for CON(C)C(=O)Nc1ccc(C(C)=O)cc1 in the records?
1.22

# get_value(readout='logP', item= COc1c(C)ncc(CO)c1CO )
-0.1

# logP lookup, item CNC(=O)Oc1ccc(SC)cc1
1.92

Which logP value belongs to Clc1ccc(Cl)c(-c2c(Cl)ccc(Cl)c2Cl)c1 ?
6.55

Need logP of NC(=O)C(c1ccccc1)c1ccccn1 (stereo not given) , thanks.
0.83

###

Peptide text beside a SMILES is read from it.
Kindly return Met if reported logP is no lower than 2; return Not met if it is lower.

Example cases with answers are listed next.
INSERT INTO measurements (compound, label_value) VALUES
  ('O=C(O)c1ccc(O)c(O)c1', 'Not met'),
  ('CC(=O)c1cccc(S(I)=C(N(C)C)N(C)C)c1 (centres undefined)', 'Not met'),
  ('CC(C)c1ccc(OC(=O)c2ccc(N)cc2O)cc1', 'Met'),
  ('COc1ccc(C)cc1N', 'Not met');

Given the entry CSCS(=O)CC(CO)NC(=O)C=Cc1c(C)[nH]c(=O)[nH]c1=O (centres undefined) , answer whether its logP meets or surpasses 2.
Not met

For this compound, is measured logP 2 or higher? CCCCCCOC(N)=O
Not met

Reported logP at or above 2? NC(=O)OCc1ccccc1
Not met

Kindly determine if logP recorded for O=C(NO)Nc1ccccc1 is above or exactly 2.
Not met

Confirm if logP reported for the compound COc1ccccc1OCC(=O)O is 2 or above.
Not met

Check the entry O=C(C=CC(=O)c1ccccc1)c1ccccc1 : does logP equal or exceed 2?
Met

Decide: logP of CC[C@H](C)[C@H](NC(C)=O)C(=O)N[C@@H](CC(N)=O)C(N)=O (Ac-Ile-Asn-NH2) >= 2?
Not met

Could you tell me if the measured logP of CC(C)(C)c1ccccc1 reaches 2 or more?
Met

Is it the case that Cc1ccc2cc(C)c(C)cc2c1 has logP reaching or exceeding 2?
Met

###

# Lookup of reported logP keyed by entry
Response field accepts a number only; no unit should be typed.

INSERT INTO assay_data (compound, observed) VALUES
  ('COCCCc1ccccc1', 2.7),
  ('CCOC(=O)c1ccc(NC(=O)N(C)OC)cc1', 2.24);

# lookup: logP of c1cn(C23CC4CC(CC(C4)C2)C3)cn1
2.9

I am curious: what logP value has been reported for CCOC(=O)c1ccco1 ?
1.52

Need logP of CCOP(=O)(Cc1ccc(-c2nc3ccccc3s2)cc1)N1CCCC1=O (stereo not given) , thanks.
3

Return reported logP; argument: CCCC(C)(C)c1ccc(C2CCCC(O)C2)c(O)c1 (stereo not given)
4.82

Need logP, item CCCSP(=O)(OCC)Oc1ccc(Br)cc1Cl (stereo not given)
4.68

Look at this compound and give its reported logP. CC(=O)c1ccc(C)cc1
2.1

Dear colleague, I am looking for the recorded logP of the following compound: CN(C)C(=O)Nc1cccc([N+](=O)[O-])c1
1.46

Entry c1ccc(Cc2ccncc2)cc1 : reported logP = ?
2.62

Please report the recorded logP for CC(=O)c1ccc[nH]1 .
0.93

GET /values?readout=logP&item= CN(Cc1ccc(C#N)cc1)N=O
0.95

logP lookup needed for CCCN(CCC)C1CCOc2ccc(O)cc21 (stereo not given) , thanks.
3.17

Requested read-out: logP. Entry: CC(=O)c1ccccc1O
1.92

// logP lookup, key: CCc1ccc(S(N)(=O)=O)cc1
1.31

###

attribute.measured: logP

Record excerpt, results attached:
INSERT INTO assay_data (compound, observed) VALUES
  ('CCNC(=O)c1ccco1', 0.61),
  ('CC(=O)c1ccc([N+](=O)[O-])cc1', 1.53),
  ('S=C1CCCCCCN1', 1),
  ('O=C(O)C1c2ccccc2Sc2ccccc21', 2.57);

Sample Cc1nnc(SCC2=C(C(=O)O)N3C(=O)[C@@H](NC(=O)Cn4cnnn4)[C@H]3SC2)s1 — what was its logP?
-0.58

What value of logP has been recorded for this entry: O=[N+]([O-])c1cccc(F)c1
1.9

Can you look up the measured logP of CCCCCCC1(CC)C(=O)NC(=O)NC1=O for me?
2.46

Quick one: logP for O=c1[nH]cc(C(F)(F)F)c(=O)[nH]1 ?
0.04

###

Peptide text beside a SMILES is read from it.
attribute.measured: logP
Give the figure only, with no unit attached.

Reference set, count: 5
INSERT INTO assay_data (molecule, observed) VALUES
  ('CC(=O)N[C@@H](Cc1c[nH]c2ccccc12)C(=O)N[C@H](C(N)=O)C(C)C (Ac-Trp-Val-NH2)', 0.73),
  ('CC=CC=CC (mixture of isomers)', 2.8),
  ('Cc1c[nH]c(=O)[nH]c1=O', -0.62),
  ('NCCc1c[nH]c2ccccc12', 1.55),
  ('Cc1ccc(NC2=NCCN2)c(Cl)c1', 1.8);

Give the measured logP of Oc1ccccc1Br .
2.35

Which logP value is on record for Nc1ccccc1N ?
0.15

May I ask what logP has been recorded for CCOc1cccc(S(I)=C(N(C)C)N(C)C)c1 (stereo unspecified) ?
-0.1

Recorded logP for C1CCOC1 , please?
0.46

Endpoint output: logP of CC(C)c1ccc(NC(=O)N(C)C)cc1 . Value?
2.87

Which logP value belongs to O=c1cncc[nH]1 ?
-1.49

Please report the recorded logP for C#CCCCC .
2.73

Returns the measured logP for the input molecule. Input: CCN(C)C
0.7

Fill blank: measured logP of the molecule Clc1cccc(-c2ccccc2Cl)c1 is ____.
5.02

Which logP reading was recorded for the molecule O=C(C=Cc1ccccc1)OCC=Cc1ccccc1 ?
4.45

Item Cc1ccccc1C(=O)O has what recorded logP?
2.46

###

Kind request: treat 2 as inclusive, so logP at 2 or higher is True, anything lower is False.

INSERT INTO results (compound, label_value) VALUES
  ('CCCN1CCCC[C@H]1C(=O)Nc1c(C)cccc1C', 'True'),
  ('O=C1CCCCN1', 'False');

Test whether the compound CN(C)C=CC#N records logP of 2 or higher.
False

Reported logP at or above 2? CCc1ccc(O)cc1
True

State whether the measured logP reaches 2, counting equality as reaching it, for CN(C)C(=O)C=Cc1ccccc1
False

In plain terms: is recorded logP at least 2 for N#CCc1ccc([N+](=O)[O-])cc1 ?
False

Dear colleague, could you confirm whether CC(=O)NCc1cc(C(=O)NN)ccn1 has logP at or above 2?
False

Item O=C(Oc1ccc(N=C=S)cc1)c1ccccc1 with logP of 2 or above?
True

Record Clc1ccccc1-c1cccc(Cl)c1Cl ; criterion: logP no lower than 2. Met?
True

Would you say O=C(O)COc1ccccc1Cl shows logP at minimum 2?
False

Item C=CC(=O)OC with logP of 2 or above?
False

Check the entry NNC(=O)c1cccc([N+](=O)[O-])c1 : does logP equal or exceed 2?
False

###

The label depends only on logP: condition met if it is at least 0.6, condition not met if it is smaller.

Please check the record Cc1ccc(O)c(O)c1 and state if its logP is at or above 0.6.
condition met

hey, is logP for this one >= 0.6? C1=CC=CCC=C1
condition met

Assess whether reported logP for CC(O)C(F)(F)F (centres undefined) sits at 0.6 or higher.
condition met

Is reported logP greater than or equal to 0.6 here: O=C(O)CCCOc1ccc(Cl)cc1Cl
condition met

Decide: logP of COc1cccnc1CCCCNc1ncc(Cc2ccc(C)nc2)c(=O)[nH]1 >= 0.6?
condition met

logP >= 0.6 for O=S(=O)(Nc1ccccc1)C(F)F ?
condition met

Reported logP at or above 0.6? c1cc2ccc3ccc4ccc5cccc6c(c1)c2c3c4c56
condition met

Reported logP reaches at least 0.6 for O=[N+]([O-])c1cc[n+]([O-])c2c(F)cccc12 ?
condition met

logP >= 0.6 for O=C(O)Cn1nc2ccccc2n1 ?
condition not met

Check the entry CNc1ncnc2c1ncn2C1CC(O)C(CO)O1 (centres undefined) : does logP equal or exceed 0.6?
condition not met

# check: logP of NC(=O)CCCc1cccnc1 is greater than or equal to 0.6
condition not met

Hi team, for COc1ccc(NC(=O)NC(=N)N)cc1 , is the recorded logP at or above 0.6?
condition not met

Can CN(C)c1ccc(C(=C2C=CC(=[N+](C)C)C=C2)c2ccccc2)cc1.[Cl-] be said to have logP at or above 0.6?
condition met

Quick check: does CN(C)C1=CC(=O)c2ccccc2C1=O have logP greater than or equal to 0.6?
condition met
